- Tested on: SEQID-00338 kinase activity (AMP + ATP→ADP)
- experiment.summary: Kinase activity of SEQID-00338 (ADP-Glo Max Assay)
- Type: biochemical
- measurement.context: 7 μg/mL, 30 minute reaction at 30° C.
In this section we review reported AVG percent activity relative to purified wild-type protein values for a set of molecules.
Numbers only; they are read as %.

Consider the worked cases shown below.
molecule	unit.abbreviation	measurement
R134M: single amino acid mutant of SEQID-00338, substrate binding position 134 (protein, listed as Saccharomyces cerevisiae, source: /note="strain ATCC 204508 / S288c") MSSSESIRMVLIGPPGAGKGTQAPNLQERFHAAHLATGDMLRSQIAKGTQLGLEAKKIMDQGGLVSDDIMVNMIKDELTNNPACKNGFILDGFPRTIPQAEKLDQMLKEQGTPLEKAIELKVDDELLVARITGMLIHPASGRSYHKIFNPPKEDMKDDVTGEALVQRSDDNADALKKRLAAYHAQTEPIVDFYKKTGIWAGVDASQPPATVWADILNKLGKD	%	0.3
R134Y: single amino acid mutant of SEQID-00338, substrate binding position 134 (protein, listed as Saccharomyces cerevisiae, source: /note="strain ATCC 204508 / S288c") MSSSESIRMVLIGPPGAGKGTQAPNLQERFHAAHLATGDMLRSQIAKGTQLGLEAKKIMDQGGLVSDDIMVNMIKDELTNNPACKNGFILDGFPRTIPQAEKLDQMLKEQGTPLEKAIELKVDDELLVARITGYLIHPASGRSYHKIFNPPKEDMKDDVTGEALVQRSDDNADALKKRLAAYHAQTEPIVDFYKKTGIWAGVDASQPPATVWADILNKLGKD	%	0.2
R42Q: single amino acid mutant of SEQID-00338, position 42 (protein, listed as Saccharomyces cerevisiae, source: /note="strain ATCC 204508 / S288c") MSSSESIRMVLIGPPGAGKGTQAPNLQERFHAAHLATGDMLQSQIAKGTQLGLEAKKIMDQGGLVSDDIMVNMIKDELTNNPACKNGFILDGFPRTIPQAEKLDQMLKEQGTPLEKAIELKVDDELLVARITGRLIHPASGRSYHKIFNPPKEDMKDDVTGEALVQRSDDNADALKKRLAAYHAQTEPIVDFYKKTGIWAGVDASQPPATVWADILNKLGKD	%	1.2

// moving on: another record for AVG percent activity relative to purified wild-type protein
So, R42L: single amino acid mutant of SEQID-00338, position 42 (protein, listed as Saccharomyces cerevisiae, source: /note="strain ATCC 204508 / S288c") MSSSESIRMVLIGPPGAGKGTQAPNLQERFHAAHLATGDMLLSQIAKGTQLGLEAKKIMDQGGLVSDDIMVNMIKDELTNNPACKNGFILDGFPRTIPQAEKLDQMLKEQGTPLEKAIELKVDDELLVARITGRLIHPASGRSYHKIFNPPKEDMKDDVTGEALVQRSDDNADALKKRLAAYHAQTEPIVDFYKKTGIWAGVDASQPPATVWADILNKLGKD ? Its AVG percent activity relative to purified wild-type protein was 1.7
